ASSAYED SYSTEM: Bromodomain-containing protein 2 (Homo sapiens, UniProt P25440)
Sequence (P25440 whole entry, the tested form may be a part): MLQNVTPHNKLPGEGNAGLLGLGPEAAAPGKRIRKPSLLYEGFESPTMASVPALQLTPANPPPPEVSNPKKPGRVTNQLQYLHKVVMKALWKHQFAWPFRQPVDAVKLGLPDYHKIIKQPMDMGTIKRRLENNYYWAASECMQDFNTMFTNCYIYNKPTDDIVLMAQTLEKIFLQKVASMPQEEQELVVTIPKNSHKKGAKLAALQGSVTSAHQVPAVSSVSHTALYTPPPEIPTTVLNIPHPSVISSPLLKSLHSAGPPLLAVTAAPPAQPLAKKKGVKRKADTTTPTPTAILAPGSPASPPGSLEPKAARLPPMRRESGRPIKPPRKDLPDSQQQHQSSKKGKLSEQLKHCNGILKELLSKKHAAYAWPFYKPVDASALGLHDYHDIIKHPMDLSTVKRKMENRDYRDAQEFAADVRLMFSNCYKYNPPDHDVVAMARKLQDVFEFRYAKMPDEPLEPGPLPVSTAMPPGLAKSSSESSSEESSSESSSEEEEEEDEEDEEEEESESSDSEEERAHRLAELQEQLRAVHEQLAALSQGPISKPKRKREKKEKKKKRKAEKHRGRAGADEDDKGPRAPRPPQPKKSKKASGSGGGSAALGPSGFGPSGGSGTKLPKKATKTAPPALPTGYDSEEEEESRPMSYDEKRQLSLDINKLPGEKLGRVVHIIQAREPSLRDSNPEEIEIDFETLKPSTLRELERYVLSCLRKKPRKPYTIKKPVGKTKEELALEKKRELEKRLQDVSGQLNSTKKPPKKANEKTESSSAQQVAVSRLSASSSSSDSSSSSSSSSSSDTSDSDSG
PROTOCOL SUMMARY: Binding affinity to BRD2 bromodomain 1 to 2 (G73 to A560 amino acids) (unknown origin) using Alexa647-labeled BET-inhibitor as fluorescent probe by bromodomain TR-FRET binding assay
pKi: −log10 of the molar value.
EXPERIMENTAL ENDPOINT: pKi

{"SMILES INPUT": "Cn1cc2c3c(c[nH]c3c1=O)CN(c1ccc(F)cc1F)c1ccc(CS(C)(=O)=O)cc1-2", "pKi": 8.60}

[1] Cn1cc2c3c(c[nH]c(=O)c31)-c1cc(CS(C)(=O)=O)ccc1N(c1ccc(F)cc1)C2
[2] Cn1cc2c3c(c[nH]c3c1=O)CN(c1ccccn1)c1ccc(CS(C)(=O)=O)cc1-2
[in] Which shows the larger pKi value: 1 or 2 ? Write down the label of the entry you select.
[out] 2
(2: 9.32, 1: 8.59)

----------
ASSAYED SYSTEM: Bromodomain-containing protein 4 (Homo sapiens, UniProt O60885)
PROTOCOL SUMMARY: Binding affinity to His-tagged BRD4 bromodomain 1 to 2 (K57 to K550 amino acids) (unknown origin) using Alexa647-labeled BET-inhibitor as fluorescent probe by bromodomain TR-FRET binding assay
Type: single protein
pKi: −log10 of the molar value.
EXPERIMENTAL ENDPOINT: pKi

{"SMILES INPUT": "Cn1cc2c3c(c[nH]c(=O)c31)-c1cc(CS(C)(=O)=O)ccc1N(c1ccc(F)cc1)C2", "EXPERIMENTAL RESULT": 8.48}
{"SMILES INPUT": "Cn1cc2c3c(c[nH]c3c1=O)CN(CC1CC1)c1ccccc1-2", "EXPERIMENTAL RESULT": 7.80}
{"SMILES INPUT": "Cn1cc2c3c(c[nH]c3c1=O)CN(c1ccc(F)cc1F)c1ccc(CS(C)(=O)=O)cc1-2", "EXPERIMENTAL RESULT": 9.06}
{"SMILES INPUT": "Cn1cc2c3c(c[nH]c(=O)c31)CN(CC1CC1)c1ccc(S(C)(=O)=O)cc1-2", "EXPERIMENTAL RESULT": 6.74}
{"SMILES INPUT": "Cn1cc2c3c(c[nH]c3c1=O)CN(CC1CC1)c1ccc(S(C)(=O)=O)cc1-2", "EXPERIMENTAL RESULT": 7.59}

[a] Cn1cc2c3c(c[nH]c(=O)c31)CN(CC1CC1)c1ccc(CS(C)(=O)=O)cc1-2
[b] Cn1cc(-c2cc(CS(C)(=O)=O)ccc2NCC2CC2)c2cc[nH]c(=O)c21
[c] Cn1cc2c3c(c[nH]c3c1=O)CN(C(=O)C1CC1)c1ccc(CS(C)(=O)=O)cc1-2
[in] Write the entries in order, lowest recorded pKi first. Present the labels in the sequence the task asks for.
[out] b, a, c
(b: 6.66, a: 7.92, c: 8.15)

----------
ASSAYED SYSTEM: Bromodomain-containing protein 4 (Homo sapiens, UniProt O60885)
PROTOCOL SUMMARY: Binding affinity to BRD4 bromodomain 1 (K57 to E168 amino acids) (unknown origin) using Alexa647-labeled BET-inhibitor as fluorescent probe by bromodomain TR-FRET binding assay
pKi: −log10 of the molar value.
EXPERIMENTAL ENDPOINT: pKi

{"SMILES INPUT": "Cn1cc2c3c(c[nH]c3c1=O)CN(c1ccccn1)c1ccc(CS(C)(=O)=O)cc1-2", "EXPERIMENTAL ENDPOINT": "pKi", "EXPERIMENTAL RESULT": 8.92}

[a] Cn1cc2c3c(c[nH]c(=O)c31)-c1cc(CS(C)(=O)=O)ccc1N(c1ccc(F)cc1)C2
[b] Cn1cc2c3c(c[nH]c3c1=O)CN(c1ccc(F)cc1F)c1ccc(CS(C)(=O)=O)cc1-2
[in] I need your help: which of the pair a , b has higher pKi? Use the label to indicate which entry you chose.
[out] a
